Data provenance is patent US20230110188A1.

- Target system: T1, Human MuSK (R&D Systems, cat. 10189-MK, histidine tag) (human, UniProt O15146 24-495)
- T1 construct: Bought protein; also called human monomeric MuSK-6xhis; not shown: histidine tag (6xhis)
- T1 sequence: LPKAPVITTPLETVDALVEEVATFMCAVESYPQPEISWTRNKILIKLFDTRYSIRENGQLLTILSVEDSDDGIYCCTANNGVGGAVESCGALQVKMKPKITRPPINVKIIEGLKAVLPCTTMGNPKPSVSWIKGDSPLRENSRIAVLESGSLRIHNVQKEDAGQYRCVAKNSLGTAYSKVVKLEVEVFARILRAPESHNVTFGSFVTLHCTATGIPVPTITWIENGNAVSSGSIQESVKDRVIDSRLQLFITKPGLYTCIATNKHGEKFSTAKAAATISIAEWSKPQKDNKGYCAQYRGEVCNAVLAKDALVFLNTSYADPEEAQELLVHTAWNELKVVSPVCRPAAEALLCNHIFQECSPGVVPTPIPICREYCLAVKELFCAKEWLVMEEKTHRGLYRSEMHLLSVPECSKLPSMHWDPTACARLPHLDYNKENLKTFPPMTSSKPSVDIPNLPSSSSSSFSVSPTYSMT
- Assay overview: SPR (Biacore), antibody captured on anti-hFc chip; 0.625 nM; dissociation pH 7.4
Readout: koff (s⁻¹)

[[record]]
binder = "3D9b (antibody, human IgG1, kappa, L234A L235A, V domains shown) VH: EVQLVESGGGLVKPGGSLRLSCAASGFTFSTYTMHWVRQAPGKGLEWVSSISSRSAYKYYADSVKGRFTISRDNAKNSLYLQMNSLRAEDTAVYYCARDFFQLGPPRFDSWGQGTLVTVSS VL: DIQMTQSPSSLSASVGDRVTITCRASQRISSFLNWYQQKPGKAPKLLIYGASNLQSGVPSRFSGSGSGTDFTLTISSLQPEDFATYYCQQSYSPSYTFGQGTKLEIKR"
readout = "koff"
numeric_readout = 0.00014

[[record]]
binder = "4D3 (antibody, human IgG1, kappa, L234A L235A, V domains shown) VH: EVQLVESGGGLVKPGGSLRLSCAASGFTFSSYTMTWVRQAPGKGLEWVSSISSGGHYIYYTDSLKGRFTISRDNAKNSLYLQMNSLRAEDTAVYYCARERLLRLGVGFDFWGQGTLVTVSS VL: DIQMTQSPSSLSASVGDRVTITCRASQSISGYLNWYQQKPGKAPKLLIYAASTLQSGVPSRFSGSGSGTDFTLTISSLQPEDFATYYCQQSYSALYTFGQGTKLEIKR"
readout = "koff"
numeric_readout = 0.00016

[[record]]
binder = "3D10a (antibody, human IgG1, kappa, L234A L235A, V domains shown) VH: EVQLVESGGGLVKPGGSLRLSCAASGFTFSASTMAWVRQAPGKGLEWVSSVSGDSHHIYYADSLKGRFTISRDNAKNSLYLQMNSLRAEDTAVYYCARERLLRLGVGFDSWGQGTLVTVSS VL: DIQMTQSPSSLSASVGDRVTITCRASQRISGFVNWYQQKPGKAPKLLIYAASTLQSGVPSRFSGSGSGTDFTLTISSLQPEDFATYYCQQSYSPLYTFGQGTKLEIKR"
readout = "koff"
numeric_readout = 0.00013

[[record]]
binder = "3F6c (antibody, human IgG1, kappa, L234A L235A, V domains shown) VH: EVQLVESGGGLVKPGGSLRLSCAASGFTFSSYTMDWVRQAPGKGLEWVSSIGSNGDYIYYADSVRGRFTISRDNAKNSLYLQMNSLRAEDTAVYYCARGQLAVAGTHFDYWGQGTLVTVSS VL: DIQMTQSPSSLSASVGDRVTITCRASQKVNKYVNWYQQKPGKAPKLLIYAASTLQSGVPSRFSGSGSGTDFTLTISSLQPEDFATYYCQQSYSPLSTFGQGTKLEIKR"
readout = "koff"
numeric_readout = "4e-05"

